Biological target: full-length beta-Catenin (Uniprot ID P35222) (Homo sapiens, UniProt P35222)
Construct: 10 nM full-length beta-Catenin (Uniprot ID P35222)
Sequence (P35222 1-781): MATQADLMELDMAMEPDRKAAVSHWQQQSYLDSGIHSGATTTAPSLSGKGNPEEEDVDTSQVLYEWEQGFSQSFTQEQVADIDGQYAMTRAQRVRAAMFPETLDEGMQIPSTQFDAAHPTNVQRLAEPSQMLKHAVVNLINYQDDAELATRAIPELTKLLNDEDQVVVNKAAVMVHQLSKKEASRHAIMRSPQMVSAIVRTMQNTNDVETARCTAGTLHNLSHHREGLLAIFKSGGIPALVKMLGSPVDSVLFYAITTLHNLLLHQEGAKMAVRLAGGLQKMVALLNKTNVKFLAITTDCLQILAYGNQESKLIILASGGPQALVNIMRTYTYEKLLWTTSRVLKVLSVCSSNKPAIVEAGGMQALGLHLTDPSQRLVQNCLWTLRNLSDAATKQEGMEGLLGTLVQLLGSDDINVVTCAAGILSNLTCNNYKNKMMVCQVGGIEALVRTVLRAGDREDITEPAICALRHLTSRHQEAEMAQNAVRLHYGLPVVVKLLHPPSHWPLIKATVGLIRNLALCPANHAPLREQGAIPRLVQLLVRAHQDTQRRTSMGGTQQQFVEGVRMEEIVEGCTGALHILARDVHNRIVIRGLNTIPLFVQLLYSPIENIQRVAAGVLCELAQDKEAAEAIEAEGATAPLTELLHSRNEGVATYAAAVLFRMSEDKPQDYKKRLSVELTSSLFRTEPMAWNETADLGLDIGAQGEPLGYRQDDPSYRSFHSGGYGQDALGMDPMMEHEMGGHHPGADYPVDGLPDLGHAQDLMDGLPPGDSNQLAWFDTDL
Test: Fluorescence polarization IC50 (beta-catenin / 5FAM-TCF4 10-53 competition)
Assay type: binding
Details: fluorescence polarization; read-out: beta-Catenin FP IC50
For each of the compounds below, state its IC50.
Numbers only, in nM.

Compound	Units Label	IC50
CC(=O)N1CCC[C@]12CC=CCCCC1(CCCC=CCCCOC(=O)N3CC[C@@](C(=O)N[C@@H](Cc4ccccc4Cl)C(=O)N[C@@H](Cc4csc5ccccc45)C(=O)N[C@H](CO)[C@@H](C)O)(C3)NC(=O)[C@H](CC(C)C)NC(=O)[C@H](Cc3ccccc3)NC(=O)[C@H](C)NC(=O)[C@H](C)NC(=O)[C@H](CC(=O)O)NC(=O)[C@H](CC(=O)O)NC1=O)NC(=O)[C@H](CC(C)(C)C)NC(=O)[C@H](CC(=O)O)NC2=O (some centres unmarked)	nM	17

Query compound follows.
Give the reported value of IC50 for this record: CC(=O)N1CCC[C@]12CC=CCCCC1(CCCC=CCCCOC(=O)N3CC[C@@](C(=O)N[C@@H](Cc4ccsc4)C(=O)N[C@@H](Cc4csc5ccccc45)C(=O)N[C@@H](CCC(N)=O)C(N)=O)(C3)NC(=O)[C@H](CC(C)C)NC(=O)[C@H](Cc3ccccc3)NC(=O)[C@H](C)NC(=O)[C@H](C)NC(=O)[C@H](CC(=O)O)NC(=O)[C@H](CC(=O)O)NC1=O)NC(=O)[C@H](CCCCNC(=O)COCCOCCNC(=O)CC[C@@H](C)[C@H]1CC[C@H]3[C@@H]4CC[C@@H]5C[C@H](O)CC[C@]5(C)[C@H]4CC[C@]13C)NC(=O)[C@H](CC(=O)O)NC2=O (some centres unmarked)
57

This collection of values is drawn from patent US20240116985A1.
